system: R275C/beta2Delta; assay: modulators of BK channel variants, profiling panel, selectivity assay, cell-based, U2OS BacMam, thallium flux, beta subunits (AID 1259406); conditions: at 30 µM;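 also: initial slope of Thallos dye fluorescence rise after thallium is added; log ratio against the mean of 0.3% DMSO vehicle wells on the same plate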
measurement_kind: log fold change Tl+ flux
Write the number on its own, no unit after it.

Examples from the recorded data:
compound	test_system	measurement_kind	reported_result
CC(=O)S[C@@H]1CC2=CC(=O)CC[C@]2(C)[C@H]2CC[C@@]3(C)[C@@H](CC[C@@]34CCC(=O)O4)[C@H]12	R275C/beta2Delta	log fold change Tl+ flux	0.0485
CN(C)CCc1c[nH]c2ccc(C[C@H]3COC(=O)N3)cc12	R275C/beta2Delta	log fold change Tl+ flux	-0.0113
CN(C)CCCN1c2ccccc2Sc2ccc(Cl)cc21	R275C/beta2Delta	log fold change Tl+ flux	0.103
NNC(=O)c1ccncc1	R275C/beta2Delta	log fold change Tl+ flux	0.0339

Query: Form: Entry = `NCCc1ccc(O)c(O)c1` | System = R275C/beta2Delta | log fold change Tl+ flux = ____
Reply: 0.0238

Query: Form: Entry = `CCCN1C[C@H](CSC)C[C@@H]2c3cccc4[nH]cc(c34)C[C@H]21` | System = R275C/beta2Delta | log fold change Tl+ flux = ____
Reply: -0.00636

Query: Form: Entry = `CC1=C(C(=O)O)N2C(=O)[C@@H](NC(=O)[C@H](N)c3ccccc3)[C@H]2SC1` | System = R275C/beta2Delta | log fold change Tl+ flux = ____
Reply: -0.026

Query: Form: Entry = `CC(C)C(=O)Nc1ccc([N+](=O)[O-])c(C(F)(F)F)c1` | System = R275C/beta2Delta | log fold change Tl+ flux = ____
Reply: 0.0539

Query: Form: Entry = `CN1CCN(CCCN2c3ccccc3Sc3ccc(C(F)(F)F)cc32)CC1` | System = R275C/beta2Delta | log fold change Tl+ flux = ____
Reply: -0.0448

Query: Form: Entry = `CN=C(NC#N)NCCSCc1nc[nH]c1C` | System = R275C/beta2Delta | log fold change Tl+ flux = ____
Reply: 0.00462

Query: Form: Entry = `O=c1[nH]cc(F)c(=O)[nH]1` | System = R275C/beta2Delta | log fold change Tl+ flux = ____
Reply: -0.0331

Query: Form: Entry = `N[C@@H](Cc1cc(I)c(Oc2cc(I)c(O)c(I)c2)c(I)c1)C(=O)O` | System = R275C/beta2Delta | log fold change Tl+ flux = ____
Reply: 0.134

Query: Form: Entry = `C[C@@H]1O[C@@H](OC[C@H]2O[C@@H](Oc3c(-c4ccc(O)c(O)c4)oc4cc(O)cc(O)c4c3=O)[C@H](O)[C@@H](O)[C@@H]2O)[C@H](O)[C@H](O)[C@H]1O` | System = R275C/beta2Delta | log fold change Tl+ flux = ____
Reply: 0.00535

Query: Form: Entry = `c1ccc2[nH]c(-c3cscn3)nc2c1` | System = R275C/beta2Delta | log fold change Tl+ flux = ____
Reply: -0.0148

Query: Form: Entry = NS(=O)(=O)c1cc(C2(O)NC(=O)c3ccccc32)ccc1Cl (stereo not drawn) | System = R275C/beta2Delta | log fold change Tl+ flux = ____
Reply: -0.0423

====

Measured insulin secretion stimulation values are reported for all entries that follow.
assay: stimulators of insulin release from INS-1E, primary screen, cell-based, 5 mM glucose, NPC library (AID 1117329); conditions: rat INS-1E insulin secretion, at 10 µM, active compounds read high; also: reference of the scale not given here
Your answer should be a plain number; it is taken to be in %.

Examples from the recorded data:
compound	measurement_units	insulin secretion stimulation
Cc1c(C)c2c(c(C)c1OC(=O)CCC(=O)O)CC[C@@](C)(CCC[C@H](C)CCC[C@H](C)CCCC(C)C)O2	%	2.6
CC1COc2c(N3CCN(C)CC3)c(F)cc3c(=O)c(C(=O)O)cn1c23 (stereo unspecified)	%	3.4

Kindly review the next compound as well.
Query: Could you share which insulin secretion stimulation value was measured for `N#CSCC(=O)O` ?
Reply: 0.5
